Hello, the source for this data is patent US6306860A, in case you need it.

Each entry below carries its reported inhibition at 1 µg/mL.
target: HBV polymerase (Hepatitis B virus genotype D subtype ayw); construct: made in house; host or cells: E. coli; assay: Inhibitory activities against HBV polymerase (reverse transcriptase activity) in vitro; format: biochemical; conditions: 1 μg/ml; read-out: Inhibitory activity of HBV-RT (%)
Sequence (P03156 whole entry): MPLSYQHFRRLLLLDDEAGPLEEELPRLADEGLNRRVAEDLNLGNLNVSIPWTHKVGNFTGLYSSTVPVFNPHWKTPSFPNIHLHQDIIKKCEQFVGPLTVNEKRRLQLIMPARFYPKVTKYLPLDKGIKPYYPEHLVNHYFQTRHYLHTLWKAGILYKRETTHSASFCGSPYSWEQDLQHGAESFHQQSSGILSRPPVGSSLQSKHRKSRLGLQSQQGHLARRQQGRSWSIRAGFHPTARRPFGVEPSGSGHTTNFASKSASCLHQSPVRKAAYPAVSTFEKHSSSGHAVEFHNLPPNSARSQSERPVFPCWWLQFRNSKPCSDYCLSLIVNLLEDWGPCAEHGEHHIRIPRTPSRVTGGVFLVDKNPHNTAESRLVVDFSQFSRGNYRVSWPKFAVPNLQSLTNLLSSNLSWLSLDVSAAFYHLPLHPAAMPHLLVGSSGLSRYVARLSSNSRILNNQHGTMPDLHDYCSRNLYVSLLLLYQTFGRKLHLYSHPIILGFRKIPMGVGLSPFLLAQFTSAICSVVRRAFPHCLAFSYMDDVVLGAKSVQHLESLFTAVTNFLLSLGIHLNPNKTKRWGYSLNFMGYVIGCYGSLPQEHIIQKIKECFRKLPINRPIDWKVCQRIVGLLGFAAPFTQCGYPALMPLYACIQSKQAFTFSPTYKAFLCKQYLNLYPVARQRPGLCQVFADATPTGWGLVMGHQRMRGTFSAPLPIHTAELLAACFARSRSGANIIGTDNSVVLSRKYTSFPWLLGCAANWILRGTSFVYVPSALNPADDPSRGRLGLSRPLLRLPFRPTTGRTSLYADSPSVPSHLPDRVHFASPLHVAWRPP
Provide the reading as a plain figure in %.

Some compounds with known inhibition at 1 µg/mL results, for comparison:
COMPOUND	REPORTED VALUE
CC(C)Nc1cccnc1N1CCN(C(=O)c2ccc(C(=O)NCC3CCCO3)cn2)CC1 (stereo not shown)	74
COCCCNC(=O)c1ccc(C(=O)N2CCN(c3ncccc3NC(C)C)CC2)nc1	63
CC(C)Nc1cccnc1N1CCN(C(=O)c2ccc(C(=O)NCCCO)cn2)CC1	71
COCCN(CCOC)C(=O)c1ccc(C(=O)N2CCN(CCO)CC2)nc1	77
CC(C)(CO)NC(=O)c1ccc(C(=O)N2CCN(c3ncccc3N)CC2)nc1	70
CC(C)Nc1cccnc1N1CCN(C(=O)c2ccc(C(=O)NCCN(C)C)cn2)CC1	69
Cc1csc(NC(=O)c2ccc(C(=O)N3CCN(c4ncccc4NC(C)C)CC3)nc2)n1	81
CC(C)Nc1cccnc1N1CCN(C(=O)c2ccc(C(=O)NC(C)(C)C)cn2)CC1	88

# get_value(readout= inhibition at 1 µg/mL, system= HBV polymerase (Hepatitis B virus genotype D subtype ayw)) for CC(C)NC(=O)c1ccc(C(=O)N2CCN(CCO)CC2)nc1 75

Identify the measured inhibition at 1 µg/mL of CC(C)Nc1cccnc1N1CCN(C(=O)c2ccc(C(=O)Nc3ncccc3O)cn2)CC1 for HBV polymerase (Hepatitis B virus genotype D subtype ayw). 88

Recorded inhibition at 1 µg/mL for COCCNC(=O)c1ccc(C(=O)N2CCN(CCO)CC2)nc1 with HBV polymerase (Hepatitis B virus genotype D subtype ayw), please? 85

Request: inhibition at 1 µg/mL, test system HBV polymerase (Hepatitis B virus genotype D subtype ayw), entry COC(CNC(=O)c1ccc(C(=O)N2CCN(c3ncccc3NC(C)C)CC2)nc1)OC 87

Lab request: please report inhibition at 1 µg/mL under test system HBV polymerase (Hepatitis B virus genotype D subtype ayw) for CC(C)Nc1cccnc1N1CCN(C(=O)c2ccc(C(=O)Nc3cnccn3)cn2)CC1 64

###

target: HIV reverse transcriptase (Human immunodeficiency virus type 1 group M subtype B, UniProt P04585); construct: purchased Boehringer Mannheim; assay: In vitro inhibition test against HIV reverse transcriptase; type: biochemical; settings: 0.1 μg/ml; read-out: Inhibitory activity of HIV-RT (%)
# inhibition at 0.1 µg/mL annotations
The reply should contain only the number, in %.

So what does the record say about inhibition at 0.1 µg/mL for CC(C)Nc1cccnc1N1CCN(C(=O)c2ccc(C(=O)NCc3ccccn3)cn2)CC1 ? 57

###

target: HIV reverse transcriptase (Human immunodeficiency virus type 1 group M subtype B, UniProt P04585); construct: purchased Boehringer Mannheim; assay: In vitro inhibition test against HIV reverse transcriptase; assay type: biochemical; conditions: 1 μg/ml; read-out: Inhibitory activity of HIV-RT (%)
RESULT TYPE: inhibition at 1 µg/mL (%)
State just the number; it will be interpreted in %.

As a guide, the following entries are already answered.
MOLECULE	RESULT TYPE	REPORTED VALUE
COCCCNC(=O)c1ccc(C(=O)N2CCN(CCO)CC2)nc1 [Exam. 99]	inhibition at 1 µg/mL	75
CC(C)Nc1cccnc1N1CCN(C(=O)c2ccc(C(=O)NCCCN3CCCC3=O)cn2)CC1 [Exam. 58]	inhibition at 1 µg/mL	63
COC(CNC(=O)c1ccc(C(=O)N2CCN(c3ncccc3NC(C)C)CC2)nc1)OC [Exam. 51]	inhibition at 1 µg/mL	51
O=C(NCc1ccco1)c1ccc(C(=O)N2CCN(CCO)CC2)nc1 [Exam. 103]	inhibition at 1 µg/mL	80
CC[C@H](CO)NC(=O)c1ccc(C(=O)N2CCN(CCO)CC2)nc1 [Exam. 94]	inhibition at 1 µg/mL	62
CCNc1cccnc1N1CCN(C(=O)c2ccc(C(=O)NC(C)C)cn2)CC1 [Exam. 25]	inhibition at 1 µg/mL	75
CC(C)Nc1cccnc1N1CCN(C(=O)c2ccc(C(=O)NC3CCOC3=O)cn2)CC1 (stereo not drawn) [Exam. 55]	inhibition at 1 µg/mL	62
CCNc1cccnc1N1CCN(C(=O)c2ccc(C(=O)NCCN3CCOCC3)cn2)CC1 [Exam. 60]	inhibition at 1 µg/mL	73
CC(C)Nc1cccnc1N1CCN(C(=O)c2ccc(C(=O)N(CCO)CCO)cn2)CC1 [Exam. 16]	inhibition at 1 µg/mL	68
CCN(CC)C(=O)c1ccc(C(=O)N2CCN(c3ncccc3NC(C)C)CC2)nc1 [Exam. 33]	inhibition at 1 µg/mL	80

Record request: inhibition at 1 µg/mL value, item CC(C)Nc1cccnc1N1CCN(C(=O)c2ccc(C(=O)NCCc3cccs3)cn2)CC1 [Exam. 81] 75

Item under review: COCCN(CCOC)C(=O)c1ccc(C(=O)N2CCN(CCO)CC2)nc1 [Exam. 100] . Reported inhibition at 1 µg/mL? 64

Sample CC(C)Nc1cccnc1N1CCN(C(=O)c2ccc(C(=O)NCC3CCCO3)cn2)CC1 (stereo not drawn) [Exam. 53] — what was its inhibition at 1 µg/mL? 78

Any idea what inhibition at 1 µg/mL was measured for COCCNC(=O)c1ccc(C(=O)N2CCN(c3ncccc3NCC(C)C)CC2)nc1 [Exam. 41] ? 55

Fill in the blank: the reported inhibition at 1 µg/mL of CC(C)CNC(=O)c1ccc(C(=O)N2CCN(CCO)CC2)nc1 [Exam. 88] is ____. 70

Dear colleague, I am looking for the recorded inhibition at 1 µg/mL of the following molecule: CC(C)Nc1cccnc1N1CCN(C(=O)c2ccc(C(=O)N(C)CC3OCCO3)cn2)CC1 [Exam. 52] 62

Returns the measured inhibition at 1 µg/mL for the input molecule. Input: CC(C)CNc1cccnc1N1CCN(C(=O)c2ccc(C(=O)NCCO)cn2)CC1 [Exam. 22] 60

Param item = CC(C)Nc1cccnc1N1CCN(C(=O)c2ccc(C(=O)NCCc3c[nH]cn3)cn2)CC1 [Exam. 80] ; retrieve measured inhibition at 1 µg/mL. 48

###

inhibition at 0.1 µg/mL values, listed per item
target: HBV polymerase (Hepatitis B virus genotype D subtype ayw); construct: made in house; host or cells: E. coli; assay: Inhibitory activities against HBV polymerase (reverse transcriptase activity) in vitro; format: biochemical; conditions: 0.1 μg/ml; read-out: Inhibitory activity of HBV-RT (%)
Give the value in % but do not write % after it.

Worked set:
MOLECULE	MEASUREMENT UNIT	inhibition at 0.1 µg/mL
CC[C@H](CO)NC(=O)c1ccc(C(=O)N2CCN(CCO)CC2)nc1	%	51
CC(C)CNc1cccnc1N1CCN(C(=O)c2ccc(C(=O)NCCCn3ccnc3)cn2)CC1	%	72
CC(C)Nc1cccnc1N1CCN(C(=O)c2ccc(C(=O)N(CCO)CCO)cn2)CC1	%	60

Need inhibition at 0.1 µg/mL of CCNc1cccnc1N1CCN(C(=O)c2ccc(C(=O)NCc3ccccn3)cn2)CC1 , thanks. 56

Requested field: inhibition at 0.1 µg/mL. Item: CC(C)NC(=O)c1ccc(C(=O)N2CCN(CCO)CC2)nc1 58

Which inhibition at 0.1 µg/mL is reported for this molecule? CC(C)Nc1cccnc1N1CCN(C(=O)c2ccc(C(=O)NCCN3CCOCC3)cn2)CC1 60

Could you share which inhibition at 0.1 µg/mL value was measured for CC(C)Nc1cccnc1N1CCN(C(=O)c2ccc(C(=O)Nc3ncccc3O)cn2)CC1 ? 70

What does the record list as inhibition at 0.1 µg/mL for COCCNC(=O)c1ccc(C(=O)N2CCN(CCO)CC2)nc1 ? 70

State the recorded inhibition at 0.1 µg/mL for this entry: Nc1cccnc1N1CCN(C(=O)c2ccc(C(=O)NCc3ccccn3)cn2)CC1 54

For the molecule COCCCNC(=O)c1ccc(C(=O)N2CCN(c3ncccc3NC(C)C)CC2)nc1 , what inhibition at 0.1 µg/mL is on record? 53

###

Entries and their inhibition at 1 µg/mL values follow.
biological target: HBV polymerase (Hepatitis B virus genotype D subtype ayw); construct: made in house; host or cells: E. coli; assay: Inhibitory activities against HBV polymerase (reverse transcriptase activity) in vitro; type: biochemical; conditions: 1 μg/ml; read-out: Inhibitory activity of HBV-RT (%)

Reference set, count: 3
MOLECULE	RESULT TYPE	REPORTED VALUE
CC(C)Nc1cccnc1N1CCN(C(=O)c2ccc(C(=O)NC(C)(C)CO)cn2)CC1 [Exam. 6]	inhibition at 1 µg/mL	80%
CCNc1cccnc1N1CCN(C(=O)c2ccc(C(=O)NC(C)C)cn2)CC1 [Exam. 25]	inhibition at 1 µg/mL	85%
Nc1cccnc1N1CCN(C(=O)c2ccc(C(=O)NCCO)cn2)CC1 [Exam. 20]	inhibition at 1 µg/mL	74%

Can you look up inhibition at 1 µg/mL on HBV polymerase (Hepatitis B virus genotype D subtype ayw) for Cc1ncc(CO)c(CNC(=O)c2ccc(C(=O)N3CCN(c4ncccc4NC(C)C)CC3)nc2)c1O [Exam. 78] ? 62%

Value wanted: inhibition at 1 µg/mL (HBV polymerase (Hepatitis B virus genotype D subtype ayw)) of entry CC(C)CNc1cccnc1N1CCN(C(=O)c2ccc(C(=O)NCCO)cn2)CC1 [Exam. 22] 86%

I'm curious: which inhibition at 1 µg/mL was measured for CC[C@H](CO)NC(=O)c1ccc(C(=O)N2CCN(CCO)CC2)nc1 [Exam. 94] tested on HBV polymerase (Hepatitis B virus genotype D subtype ayw)? 72%

Checklist item: inhibition at 1 µg/mL tested on HBV polymerase (Hepatitis B virus genotype D subtype ayw), entry CC(C)Nc1cccnc1N1CCN(C(=O)c2ccc(C(=O)NCCc3cccs3)cn2)CC1 [Exam. 81] , value? 80%
